Reference for the values: patent US20220112288A1

- system under test: T1, Recombinant human CD4 (R&D Systems, Cat. 10327-CD) (human, UniProt P01730 26-390, limits assumed)
- T1 construct: Bought soluble recombinant protein used as analyte at 100 nM; also called huCD4
- assay info: BLI (Octet Red384), non-clonal supernatant on AMC sensor, 100 nM human CD4, 1:1 local fit;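 further: hybridoma antibodies captured from supernatant, single CD4 concentration as analyte, association and dissociation phases fitted together, giving single-point kinetic estimates per supernatant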
Record form. Attribute: kon. Fill in for each entry.
Please reply with the bare figure in M⁻¹ s⁻¹ and do not write the unit itself.

Using known records, supply kon for 75110_05A11A (antibody, V domains shown, Non-clonal AlivaMab Mouse Kappa hybridoma supernatant, captured by anti-mouse IgG Fc (human V regions, mouse Fc)) VH: EVQLVESGGGLVKPGGSLTLSCAASGFTFSNTWMSWVRQAPGKGLEWVGRIKSKIDGGTTDYAAPVKGRFTISRDDSKNTLYLQMNSLKTEDTAVYYCTTSGTYSSGWGLFDYWGQGTLVTVSS VL: DIQMTQSPSSLSASVGDRVTITCQASQDISNYLNWYQQKPGKAPKLLIYDTSNLEAGVPSRFSGSGSGTHFTLTISSLQPEDIATYYCQQYDNLPFTFGGGTRVEIK
170000

Tell me its kon given 75110_06C16A (antibody, V domains shown, Non-clonal AlivaMab Mouse Kappa hybridoma supernatant, captured by anti-mouse IgG Fc (human V regions, mouse Fc)) VH: QVQLQESGPGLVTPSETLSLSCTVSGGSISDYYWSWIRQPGGKGLEWIGRIYSSGSTNYNPSLKSRVTMSVDTSKNQFSLKLSSVTAADTAVYFCARDREDYYYYGMDVWGQGTTVTVSS VL: DIQMTQSPSSLSASVGDRVTITCQASHDISNYLNWYQQKPGKAPKLLIYAASNLETGVPSRFSGSGSGTDFSFTISSLQPEDIATYYCQQYDHLPLTFGGGTKVEIK as the entry.
250000

Check the records and state kon for 75110_10O16A (antibody, V domains shown, Non-clonal AlivaMab Mouse Kappa hybridoma supernatant, captured by anti-mouse IgG Fc (human V regions, mouse Fc); also called 75110_10016A) VH: EVQLVESGGGLVQPGGSLRLSCAASGFTFSNSDMHWVRQATGKGLEWVSTIGTAGDTYYPGSVKGRFTISRENAKNSLYLQMNSLRAGDTAVYYCARGGLYYYGMDVWGQGTTVTVSS VL: ENVLTQSPGTLSLSPGERATLSCRASQSVSSSYLAWYQQKPGQAPRLLIYGASSRATGIPDRFSGSGSGTDFTLTISRLEPEDFAVYYCHQFGSSPFTFGPGTKVDIK
64800
